Assay: Stability in dog at 10 mg/kg, po and 1 mg/kg, iv
Type: ADME, organism-based, Canis lupus familiaris
Conditions: in vivo
assayMetric: half-life (h)
One number for each entry, in h.

Identify measured half-life associated with `CCOC(=O)N1CCC(NS(=O)(=O)c2ccc(NC(=O)c3ccccc3C)c3ccccc23)CC1`
3.7

---

Test: Stability in rat at 10 mg/kg, po and 1 mg/kg, iv
Type: ADME, organism-based
Details: in vivo
assayMetric: half-life (h)
Give bare numbers, in h.

Identify measured half-life associated with `CCOC(=O)N1CCC(NS(=O)(=O)c2ccc(NC(=O)c3ccccc3C)c3ccccc23)CC1`
2.6

---

Target: Voltage-gated inwardly rectifying potassium channel KCNH2 (Homo sapiens)
Sequence (Q12809 whole entry): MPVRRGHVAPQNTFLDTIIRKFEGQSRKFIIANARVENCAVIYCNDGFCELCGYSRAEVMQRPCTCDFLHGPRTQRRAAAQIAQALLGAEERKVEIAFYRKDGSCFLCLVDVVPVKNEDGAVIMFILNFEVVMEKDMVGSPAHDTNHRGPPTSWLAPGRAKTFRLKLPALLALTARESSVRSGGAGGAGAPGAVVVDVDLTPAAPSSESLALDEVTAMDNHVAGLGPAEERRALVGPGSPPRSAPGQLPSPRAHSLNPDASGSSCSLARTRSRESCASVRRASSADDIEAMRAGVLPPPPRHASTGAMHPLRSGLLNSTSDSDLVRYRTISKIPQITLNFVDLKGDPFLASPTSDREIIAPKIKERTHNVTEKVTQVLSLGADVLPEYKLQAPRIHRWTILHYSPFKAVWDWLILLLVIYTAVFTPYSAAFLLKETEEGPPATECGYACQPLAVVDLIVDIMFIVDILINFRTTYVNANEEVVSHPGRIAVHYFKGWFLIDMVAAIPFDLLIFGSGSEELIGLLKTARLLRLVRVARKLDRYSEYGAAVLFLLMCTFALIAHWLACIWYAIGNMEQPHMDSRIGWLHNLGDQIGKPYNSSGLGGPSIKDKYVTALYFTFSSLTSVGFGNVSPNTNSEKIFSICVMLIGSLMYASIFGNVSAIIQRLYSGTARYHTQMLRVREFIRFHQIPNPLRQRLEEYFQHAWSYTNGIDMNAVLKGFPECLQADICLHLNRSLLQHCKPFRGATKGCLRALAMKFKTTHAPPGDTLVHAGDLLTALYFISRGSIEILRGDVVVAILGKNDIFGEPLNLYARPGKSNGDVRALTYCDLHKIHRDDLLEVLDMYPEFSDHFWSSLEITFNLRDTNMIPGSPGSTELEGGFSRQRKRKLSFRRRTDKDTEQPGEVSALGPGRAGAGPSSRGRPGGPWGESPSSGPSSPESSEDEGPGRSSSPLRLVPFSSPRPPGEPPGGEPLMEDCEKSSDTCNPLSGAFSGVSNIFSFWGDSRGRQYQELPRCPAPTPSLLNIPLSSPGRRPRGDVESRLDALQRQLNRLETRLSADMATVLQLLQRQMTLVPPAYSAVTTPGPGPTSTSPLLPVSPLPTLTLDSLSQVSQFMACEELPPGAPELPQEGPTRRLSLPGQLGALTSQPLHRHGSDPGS
pKi: −log10 of the molar value.
assayMetric: pKi

Identify measured pKi associated with `CCOC(=O)N1CCC(NS(=O)(=O)c2ccc(NC(=O)c3ccccc3C)c3ccccc23)CC1`
< 5.00

---

Assay: Ratio of apparent permeability from basolateral to apical over apical to basolateral in Caco-2 cells
Conditions: human, read-out: Selectivity ratio
Would you mind telling me the reported efflux ratio of each entry?
Give bare numbers.

Reference set (2 entries):
INSERT INTO measurements (smilesrepr, measurednumber) VALUES
  ('CCOC(=O)N1CCC(NS(=O)(=O)c2ccc(NC(=O)c3ccccc3C)c3ccccc23)CC1', 1.4),
  ('CCNC(=O)N1CCC(NS(=O)(=O)c2ccc(NC(=O)c3ccccc3C)c3ccccc23)CC1', 11);

Then this compound:
Identify measured efflux ratio associated with `CCCC(=O)N1CCC(NS(=O)(=O)c2ccc(NC(=O)c3ccccc3C)c3ccccc23)CC1`
1.3

---

Assay: Volume of distribution of steady state in rat at 10 mg/kg, po and 1 mg/kg, iv
Type: ADME, organism-based
Conditions: in vivo, read-out: Vss
assayMetric: Vd

Identify measured Vd associated with `CCOC(=O)N1CCC(NS(=O)(=O)c2ccc(NC(=O)c3ccccc3C)c3ccccc23)CC1`
1.6 L/kg

---

Would you mind telling me the reported log10 of IC50 of each entry?
Target: C-C chemokine receptor type 8 (Homo sapiens, UniProt P51685)
Sequence (P51685 whole entry): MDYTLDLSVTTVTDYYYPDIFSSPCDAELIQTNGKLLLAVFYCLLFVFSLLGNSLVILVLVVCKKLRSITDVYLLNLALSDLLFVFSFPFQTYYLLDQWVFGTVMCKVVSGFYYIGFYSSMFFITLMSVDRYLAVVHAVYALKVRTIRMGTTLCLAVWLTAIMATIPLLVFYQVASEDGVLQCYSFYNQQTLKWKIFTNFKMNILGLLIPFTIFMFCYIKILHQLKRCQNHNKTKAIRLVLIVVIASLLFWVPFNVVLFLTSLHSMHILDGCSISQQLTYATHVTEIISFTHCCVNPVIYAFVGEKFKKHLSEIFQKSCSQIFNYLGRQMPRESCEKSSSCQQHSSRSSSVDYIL
Test: Antagonist activity against human CCR8 expressed in CHO/Galpha16 cells assessed as inhibition of CCL1-induced increase of intracellular calcium by FLIPR assay
Values below are the log10 of the recorded IC50, with nM as the unit.

Reference set (4 entries):
INSERT INTO results (smilesrepr, measurednumber) VALUES
  ('CCCC(=O)N1CCC(NS(=O)(=O)c2ccc(NC(=O)c3ccc(CC)cc3)c3ccccc23)CC1', 1.03),
  ('CCCC(=O)N1CCC(NS(=O)(=O)c2ccc(NC(=O)c3ccoc3)c3ccccc23)CC1', 3.18),
  ('CCCCc1ccc(C(=O)Nc2ccc(S(=O)(=O)NC3CCN(C(=O)CCC)CC3)c3ccccc23)cc1', 1.18),
  ('CCCC(=O)N1CCC(NS(=O)(=O)c2ccc(NC(=O)c3cc(C(C)(C)C)nn3C)c3ccccc23)CC1', 1.57);

Hello, I would appreciate it if you could give log10 of IC50 for each entry below.
1. CCCC(=O)N1CCC(NS(=O)(=O)c2ccc(NC(=O)C3CCC3)c3ccccc23)CC1
2. CCCC(=O)N1CCC(NS(=O)(=O)c2ccc(NC(=O)c3ccccn3)c3ccccc23)CC1
3. CCCC(=O)N1CCC(NS(=O)(=O)c2ccc(NC(=O)c3ccccc3C)c3ccccc23)CC1
4. COc1ccc(NS(=O)(=O)c2ccc(NC(=O)c3ccccc3)c3ccccc23)cc1

[1.76, 1.62, -0.52, 2.18]

---

Assay: Volume of distribution of steady state in dog at 10 mg/kg, po and 1 mg/kg, iv
Type: ADME, organism-based, Canis lupus familiaris
Details: in vivo, read-out: Vss
assayMetric: Vd (L/kg)
Answers are plain numbers, in L/kg.

Identify measured Vd associated with `CCOC(=O)N1CCC(NS(=O)(=O)c2ccc(NC(=O)c3ccccc3C)c3ccccc23)CC1`
1.5
